Just for reference, patent US10495796B2 is where these values come from.

Assay: Absorption characteristics: transmission spectrum of near-infrared absorbing layer of NIR filter (UV-visible spectrophotometer)
Assay type: physicochemical
Settings: transparent resin polycarbonate EP5000, nd(B) 1.63, film thickness 2.4 μm
Value type: Is value (nd(B)×(λa-λc))
A bare number is all that is needed in reply.

For orientation, consider the following solved cases.
molecule CCCCCCCC(=O)Nc1cc2c(cc1C1=C([O-])C(=c3cc4c(cc3NC(=O)CCCCCCC)=[N+](C)C(C)C4(C)C)C1=O)C(C)(C)C(C)N2C (stereo not drawn) [Example A11-24, reference compound] , Is value (nd(B)×(λa-λc)) observed: 120.8

molecule CC(=O)Nc1cc2c(cc1C1=C([O-])C(=c3cc4c(cc3NC(C)=O)=[N+](C)C(C)C4(C)C)C1=O)C(C)(C)C(C)N2C (stereo not drawn) [Example A11-20, reference compound] , Is value (nd(B)×(λa-λc)) observed: 122.4

Here is another molecule to look at.
molecule CC(CCC(C(=O)Nc1cc2c(cc1C1=C([O-])C(=c3cc4c(cc3NC(=O)C(CCC(C)CC(C)(C)C)C(C)CC(C)(C)C)=[N+](C)C(C)C4(C)C)C1=O)C(C)(C)C(C)N2C)C(C)CC(C)(C)C)CC(C)(C)C (stereo not drawn) , Is value (nd(B)×(λa-λc)) observed: 112.6

---

Reported Solubility to organic solvent: Toluene values are given for each entry in this list.
Test: Solubility of dye to organic solvent
Type: physicochemical
Settings: toluene, 50° C.; mass % of the dye to the mass of the entire solution

For orientation, consider the following solved cases.
compound CCN1c2cc(NC(=O)C(C)(C)CCCOc3cc(C)ccc3C)c(C3=C([O-])C(=c4cc5c(cc4NC(=O)C(C)(C)CCCOc4cc(C)ccc4C)=[N+](CC)C(C)C5(C)C)C3=O)cc2C(C)(C)C1C (stereo not drawn) [Example A11-8] , Solubility to organic solvent: Toluene observed: 10%< mass %

compound CC(C)C(=O)Nc1cc2c(cc1C1=C([O-])C(=c3cc4c(cc3NC(=O)C(C)C)=[N+](C)C(C)C4(C)C)C1=O)C(C)(C)C(C)N2C (stereo not drawn) [Example A11-26, reference compound] , Solubility to organic solvent: Toluene observed: <1.0% mass %

Here is another compound to look at.
compound CCCCCCCCCCCC(=O)Nc1cc2c(cc1C1=C([O-])C(=c3cc4c(cc3NC(=O)CCCCCCCCCCC)=[N+](C)C(C)C4(C)C)C1=O)C(C)(C)C(C)N2C (stereo not drawn) [Example A11-25, reference compound] , Solubility to organic solvent: Toluene observed: 10%< mass %

---

Reported Solubility to organic solvent: Cyclohexanone values are given for each entry in this list.
Assay: Solubility of dye to organic solvent
Format: physicochemical
Conditions: cyclohexanone, 50° C.; mass % of the dye to the mass of the entire solution

For orientation, consider the following solved cases.
molecule CCCCCCCC(=O)Nc1cc2c(cc1C1=C([O-])C(=c3cc4c(cc3NC(=O)CCCCCCC)=[N+](C)C(C)C4(C)C)C1=O)C(C)(C)C(C)N2C (stereo not drawn) [Example A11-24, reference compound] , Solubility to organic solvent: Cyclohexanone observed: 5.00% mass %

molecule CC(C)C(=O)Nc1cc2c(cc1C1=C([O-])C(=c3cc4c(cc3NC(=O)C(C)C)=[N+](C)C(C)C4(C)C)C1=O)C(C)(C)C(C)N2C (stereo not drawn) [Example A11-26, reference compound] , Solubility to organic solvent: Cyclohexanone observed: <1.0% mass %

Here is another molecule to look at.
molecule CCCC(CCC)C(=O)Nc1cc2c(cc1C1=C([O-])C(=c3cc4c(cc3NC(=O)C(CCC)CCC)=[N+](C)C(C)C4(C)C)C1=O)C(C)(C)C(C)N2C (stereo not drawn) , Solubility to organic solvent: Cyclohexanone observed: 10%< mass %
